Each recorded value in this set is attributed to the supplement of paper PMC8671470.

# Test system: HEL
# method-notes: cell viability (% survival relative to DMSO control, bortezomib = 0%); higher = less cytotoxic
# details: 100 nM; 72 h
Where a name gives a salt, the structure may show the parent alone.
observed-property: cell viability (%)
Answer with a number only, understood to be in %.

// solved cases for cell viability follow
molecule | experimental-target | scale-unit | cell viability
Cc1cc(CS(=O)(=O)c2ccccc2)cc(OCc2ccc(CN3CCC[C@@H]3CO)cc2)c1 [PF-543 hydrochloride] | HEL | % | 105
CC(C)c1cc2c(c(O)c1O)[C@@]1(C(=O)O)CCCC(C)(C)[C@@H]1CC2 [Carnosic acid] | HEL | % | 92.1
O=C(NNc1ccccc1)c1ccncc1 [PluriSln 1] | HEL | % | 96.8
C=C(C)[C@H]1Cc2c(ccc3c2O[C@@H]2COc4cc(OC)c(OC)cc4[C@@H]2C3=O)O1 [Rotenone] | HEL | % | 63.2
C[C@H](NC(=O)c1sccc1OCc1ccc(Cl)cc1)c1ccccc1 | HEL | % | 97.6

Missing value: cell viability, HEL, entry NC(=O)c1cccc(-c2cccc(OC(=O)NC3CCCCC3)c2)c1 [URB-597] . Fill in?
103

Find cell viability (HEL) for the entry Cc1c(-c2ccc(-c3ccccc3F)cc2)nc2ccc(F)cc2c1C(=O)O [Brequinar]
102

Notebook entry, HEL assay: cell viability of CC(C)c1nc(CN(C)C(=O)N[C@H](C(=O)N[C@@H](Cc2ccccc2)C[C@H](O)[C@H](Cc2ccccc2)NC(=O)OCc2cncs2)C(C)C)cs1 [Ritonavir] = ?
107

Give the reported cell viability for Cl.NC(CCC(=O)Nc1ccc([N+](=O)[O-])cc1)C(=O)O (stereo not given) [GPNA] (system: HEL).
106

Recall the recorded cell viability for N#Cc1ccnc(N2C(=O)CC[C@H]2C(=O)N(c2cncc(F)c2)C(C(=O)NC2CC(F)(F)C2)c2ccccc2Cl)c1 (stereo not given in full) [Ivosidenib] with HEL and state it.
114
